Listed below: cytotoxicity at 10 µM values for each entry.
# PROTOCOL_TEXT: Toxicity liver stage against HepG2, at 10uM
# Type: cell-based
# Parameters: test concentration 10 uM, cell line HepG2-A16-CD81EGFP
# CONDITIONS_USED: human, HepG2-A16-CD81EGFP cells; read-out: INHIBITION
The answer is to be given in %; state only the numeric part.

MOLECULE	REPORTED_RESULT
COc1ccc(-c2ncc(-c3nccn3CCN(C)C)cn2)cc1	1.44
O=C(c1ccc[nH]1)N1CCn2cc(CN3CCCC3)nc2C1	3.09
CSc1ncc(C(=O)NCc2cc3n(n2)CCCN(CC(C)C)C3)cn1	5.89
COCCOc1ccccc1C(=O)Nc1c(C)cnn1CC1CC1	1.13
Cc1ccccc1-n1cnnc1SCC1CCCCO1 (stereo not drawn)	11.8
COc1ccc(C)cc1CC(=O)NC(CC(=O)O)c1ccc(F)cc1 (stereo not drawn)	7.66
O=C(c1ccc2[nH]nnc2c1)N1CCC(Nc2cccnn2)CC1	-1.49
Cc1ccsc1C(=O)N1CCc2ncnc(NC(C)C)c2CC1	-79.3
CN(Cc1ccccn1)C(=O)c1nn(C)c2c1CCN(CC1CC1)C2	-1.68
N#Cc1ccccc1N1CCCN(C(=O)CCn2cccn2)CC1	-13.1

Reported cytotoxicity at 10 µM for c1ccc(-c2nnc3n2CCN(Cc2ccc4c(c2)OCCO4)C3)cc1 was 7.66

get_value(item= COCCNC(=O)c1cc(-c2cc[nH]n2)n2ccccc12 , readout=cytotoxicity at 10 µM) returns 10.4

For record Cn1cc(CN2C[C@@H]3CCCO[C@@H]3[C@H](NC(=O)CC3CC3)C2)cn1 the listed cytotoxicity at 10 µM is -0.00726
